Exercise: for every item that follows, state its recorded mass density.
conditions: 303.15 K; 101.33 kPa; Liquid; Vibrating tube method
Provide only the numeric value, understood in kg/m3.

mass density recorded for this compound, C[S+](C)[O-] [dimethyl sulfoxide] , is 1090.38

mass density recorded for this compound, CC(=O)[O-].CCn1cc[n+](C)c1 [1-ethyl-3-methylimidazolium acetate] , is 1094.72

mass density recorded for this compound, CCCC[P+](C)(CCCC)CCCC.O=C[O-] [tributylmethylphosphonium formate] , is 947.9

mass density recorded for this compound, CCC[N+]1(C)CCCC1.N#CN=C=[N-] [1-methyl-1-propylpyrrolidinium dicyanamide] , is 1023.9
